Assignment: determine reported hERG current change (%, negative = inhibition) at 10uM for the given molecules.
Biological target: human ether-à-go-go-related gene (hERG) potassium channel (human, UniProt Q12809);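 further: peak tail current of the secondary pulse compared with the same well before compound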
Sequence (Q12809 whole entry, looked up): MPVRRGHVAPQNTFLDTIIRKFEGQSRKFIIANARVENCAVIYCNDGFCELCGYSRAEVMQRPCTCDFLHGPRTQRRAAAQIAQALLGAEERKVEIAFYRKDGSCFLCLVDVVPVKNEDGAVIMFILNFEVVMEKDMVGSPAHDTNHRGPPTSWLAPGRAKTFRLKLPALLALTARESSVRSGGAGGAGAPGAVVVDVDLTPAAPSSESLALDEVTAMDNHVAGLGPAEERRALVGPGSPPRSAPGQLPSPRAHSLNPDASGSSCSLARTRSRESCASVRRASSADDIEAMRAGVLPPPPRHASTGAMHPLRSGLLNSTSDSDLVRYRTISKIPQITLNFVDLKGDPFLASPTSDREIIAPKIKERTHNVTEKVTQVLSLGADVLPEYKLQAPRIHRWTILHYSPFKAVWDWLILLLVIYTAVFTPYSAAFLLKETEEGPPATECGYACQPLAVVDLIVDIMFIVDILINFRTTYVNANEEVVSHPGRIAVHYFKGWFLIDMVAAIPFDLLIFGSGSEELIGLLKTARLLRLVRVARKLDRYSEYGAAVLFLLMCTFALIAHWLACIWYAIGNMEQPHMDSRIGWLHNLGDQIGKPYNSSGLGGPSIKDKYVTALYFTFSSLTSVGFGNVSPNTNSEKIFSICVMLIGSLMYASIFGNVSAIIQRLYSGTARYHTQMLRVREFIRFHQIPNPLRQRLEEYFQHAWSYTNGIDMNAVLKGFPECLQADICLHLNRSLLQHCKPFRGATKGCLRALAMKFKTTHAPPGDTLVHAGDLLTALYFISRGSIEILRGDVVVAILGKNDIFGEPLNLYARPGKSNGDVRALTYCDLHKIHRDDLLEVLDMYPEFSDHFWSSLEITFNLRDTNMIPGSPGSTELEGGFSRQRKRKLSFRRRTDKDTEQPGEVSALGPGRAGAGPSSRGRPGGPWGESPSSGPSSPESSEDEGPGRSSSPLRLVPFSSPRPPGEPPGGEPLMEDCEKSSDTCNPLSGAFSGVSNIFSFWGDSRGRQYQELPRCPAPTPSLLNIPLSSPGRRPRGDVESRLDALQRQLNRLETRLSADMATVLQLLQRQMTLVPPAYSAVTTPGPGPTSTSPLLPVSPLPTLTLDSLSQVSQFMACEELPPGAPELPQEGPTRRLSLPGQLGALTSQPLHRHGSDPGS
Test: primary screen, population patch clamp on CHO cells stably expressing hERG; higher = less effect of the substance
In all, about 310,000 compounds went through this assay and about 14,000 (4.5%) showed an effect of 50% or more. Effects have a minus sign here. The sample holds strong results, similar compounds and a random draw of the others, so the mix is not that of the screen.
Please respond with the number in % and leave the unit unwritten.

Reported hERG current change (%, negative = inhibition) at 10uM for COc1cccc(/C(O)=C2/C(=O)C(=O)N(Cc3ccco3)C2c2ccncc2)c1 (centres unmarked) : what is it?
15.2

Reported hERG current change (%, negative = inhibition) at 10uM for "CC(C)(C)OC(=O)c1c(N)n(Cc2ccco2)c2nc3ccccc3nc12" : what is it?
-5.55

Reported hERG current change (%, negative = inhibition) at 10uM for COc1ccc(-c2[nH]nc3c2C(c2ccccc2OC(=O)N2CCOCC2)C(C#N)=C(N)O3)cc1 (centres unmarked) : what is it?
4.69

Reported hERG current change (%, negative = inhibition) at 10uM for O=C(CC1C(=O)NCCN1Cc1ccc(Cl)c(F)c1)NCC1CCOCC1 (centres unmarked) : what is it?
9.07

Reported hERG current change (%, negative = inhibition) at 10uM for N#Cc1ccc(OCC(=O)N(C2CCCCC2)C2CCS(=O)(=O)C2)cc1 (centres unmarked) : what is it?
-50.1

Reported hERG current change (%, negative = inhibition) at 10uM for "Cn1c2ccccc2c(=O)c2ccc(C#CC3(O)CCCCC3)cc21" : what is it?
1.63

Reported hERG current change (%, negative = inhibition) at 10uM for "CCc1ccc(-c2nnn(Cc3nc4ccccc4s3)n2)cc1" : what is it?
-10.3

Reported hERG current change (%, negative = inhibition) at 10uM for Cc1ccc(CN(C(=O)COc2ccc(Br)cc2)C2CCS(=O)(=O)C2)o1 (centres unmarked) : what is it?
-33.5

Reported hERG current change (%, negative = inhibition) at 10uM for "S=c1[nH]nc(-c2ccco2)n1/N=C/c1c(Cl)cccc1Cl" : what is it?
-10.9

Reported hERG current change (%, negative = inhibition) at 10uM for O=C(NCc1ccco1)C1CC(c2ccc(Cl)c(Cl)c2)=NO1 (centres unmarked) : what is it?
8.51

Reported hERG current change (%, negative = inhibition) at 10uM for "CCOc1ccc(CCNC(=O)COC(=O)Cc2ccc(F)cc2)cc1OCC" : what is it?
-26.6

Reported hERG current change (%, negative = inhibition) at 10uM for "O=C(NCCCn1ccnc1)c1cc(-c2ccc(Cl)cc2)nc2ccccc12" : what is it?
-68.8

Reported hERG current change (%, negative = inhibition) at 10uM for "Cc1cc(C)c(Cn2c(=O)n(CCCC(=O)NCc3ccco3)c(=O)c3sccc32)c(C)c1" : what is it?
6.15

Reported hERG current change (%, negative = inhibition) at 10uM for "CCOC(=O)c1c(N)n(Cc2ccccc2)c2nc3ccccc3nc12" : what is it?
-29.6

Reported hERG current change (%, negative = inhibition) at 10uM for Cc1ccc(OCC(=O)N(Cc2ccc(C)o2)C2CCS(=O)(=O)C2)cc1 (centres unmarked) : what is it?
-52.3

Reported hERG current change (%, negative = inhibition) at 10uM for "CCCOc1ccc(/C=N/NC(=S)Nc2ccccc2[N+](=O)[O-])c(O)c1" : what is it?
24.3

Reported hERG current change (%, negative = inhibition) at 10uM for "COc1ccc(-c2nc3cccc(C)n3c2NCc2ccco2)cc1OC" : what is it?
-42.2
